tested.target: phencyclidine (PCP) receptor of the NMDA receptor complex
method.notes: [3H]-TCP binding (displacement of specific [3H]TCP binding)
assay.conditions: [3H]-TCP 2.5 nM; rat cortex/hippocampus synaptic membranes; 30 min, 37° C., pH 7.7; read-out: IC50 value, 50% inhibition of total specific [3H]TCP binding
Method: The actions of compounds of formula I as an antagonist at the phencyclidine (PCP) receptor of the NMDA receptor complex can be shown using known in vitro tests, for example that described in Vignon et al., Brain Research, 280, 194-197 (1983). […] The procedure for [^3 H]-TCP binding is adapted from Vignon et al. (1983). […] Radioactivity is measured by liquid scintillation counting. The specific activity of the [^3 H]TCP is used to convert the radioactivity measured to concentration [^3 H]TCP bound. […]
test.readout: IC50

>>> test_result("c1ccc2c(c1)CNC21CCCc2sccc21 (centres unmarked) [Example 20]")
"600 nM"
>>> test_result("COc1cccc2c1CCC21NCc2ccccc21 (centres unmarked) [Example 18]")
"5000 nM"
